Target: Bovine trypsin (Bos taurus, UniProt P00760)
Construct: Bovine trypsin is purchased from Worthington Biochemicals; purchased Worthington Biochemicals, Freehold, N.J
Sequence (P00760 24-246): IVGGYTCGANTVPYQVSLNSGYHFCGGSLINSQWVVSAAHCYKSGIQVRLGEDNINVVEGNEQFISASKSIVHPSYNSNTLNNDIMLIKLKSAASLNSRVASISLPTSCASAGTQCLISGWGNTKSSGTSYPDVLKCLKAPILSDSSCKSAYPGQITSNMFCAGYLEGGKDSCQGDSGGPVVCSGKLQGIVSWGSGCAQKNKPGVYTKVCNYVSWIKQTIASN
Assay: Serine protease inhibition (Kass), trypsin
Type: biochemical
For each entry below, report its Kass Trypsin value.
Numbers only, in L/mol × 10^6.

{"molecular.string": "Cl.Cl.Cn1c(C(=O)N[C@](C)(Cc2ccccc2)C(=O)N2CCC[C@H]2C(=O)N[C@H](C=O)CCCNC(=N)N)cc2ccccc21", "Kass Trypsin (L/mol × 10^6)": 1.3}
{"molecular.string": "C[C@@]1(C(=O)N[C@H](C=O)CCCNC(=N)N)CCCN1C(=O)[C@@H](Cc1ccccc1)NS(C)(=O)=O.Cl", "Kass Trypsin (L/mol × 10^6)": 28}
{"molecular.string": "Cl.Cn1c(C(=O)N[C@@](C)(C(=O)N2CC[C@H]2C(=O)N[C@H](C=O)CCCNC(=N)N)c2ccccc2)cc2ccccc21", "Kass Trypsin (L/mol × 10^6)": 29}
{"molecular.string": "CCOC(=O)N[C@@H](Cc1ccccc1)C(=O)N1CCC[C@@]1(C)C(=O)N[C@H](C=O)CCCNC(=N)N.Cl", "Kass Trypsin (L/mol × 10^6)": 1.7}
{"molecular.string": "COc1ccc(OC)c(S(=O)(=O)N[C@H](Cc2ccccc2)C(=O)N2CCC[C@H]2C(=O)N[C@H](C=O)CCCNC(=N)N)c1.Cl", "Kass Trypsin (L/mol × 10^6)": 150}

Could you now look at the following compound, please?
Lookup: # lookup: Kass Trypsin of CCOC(=O)N[C@H](Cc1ccccc1)C(=O)N1CCC[C@@]1(C)C(=O)N[C@H](C=O)CCCNC(=N)N.Cl
Found: 2.4

* * *

Target: Human plasmin (Homo sapiens, UniProt P00747)
Construct: Human plasmin is purchased from Boehringer Mannheim; purchased Boehringer Mannheim, Indianapolis, Ind
Sequence (P00747 581-810 limits assumed): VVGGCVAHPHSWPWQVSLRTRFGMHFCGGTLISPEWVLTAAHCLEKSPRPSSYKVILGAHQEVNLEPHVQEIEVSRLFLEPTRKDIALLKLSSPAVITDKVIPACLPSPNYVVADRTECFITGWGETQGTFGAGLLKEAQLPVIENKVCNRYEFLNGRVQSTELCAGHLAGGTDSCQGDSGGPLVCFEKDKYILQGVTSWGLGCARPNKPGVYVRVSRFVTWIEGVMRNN
Sequence (P00747 97-580 partner limits assumed): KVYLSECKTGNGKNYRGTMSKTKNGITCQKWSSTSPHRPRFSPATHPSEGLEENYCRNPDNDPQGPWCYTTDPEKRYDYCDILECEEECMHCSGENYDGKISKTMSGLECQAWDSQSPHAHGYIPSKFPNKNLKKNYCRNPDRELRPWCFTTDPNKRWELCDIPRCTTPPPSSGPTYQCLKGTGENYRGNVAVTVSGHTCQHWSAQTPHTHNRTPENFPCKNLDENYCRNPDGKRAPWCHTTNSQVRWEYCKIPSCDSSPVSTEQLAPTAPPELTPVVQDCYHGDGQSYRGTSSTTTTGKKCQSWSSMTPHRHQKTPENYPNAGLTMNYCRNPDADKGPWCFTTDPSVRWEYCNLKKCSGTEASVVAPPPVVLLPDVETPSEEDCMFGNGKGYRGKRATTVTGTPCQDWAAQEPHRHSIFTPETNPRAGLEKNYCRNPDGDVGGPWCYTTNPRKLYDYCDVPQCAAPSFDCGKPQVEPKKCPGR
Experiment: Serine protease inhibition (Kass), plasmin
Type: biochemical
assay.metric: Kass Plasmin (L/mol × 10^6)
One number for each entry, in L/mol × 10^6.

Example results:
{"molecule": "CCS(=O)(=O)N[C@@H](Cc1ccccc1)C(=O)N1CCC[C@@]1(C)C(=O)N[C@H](C=O)CCCNC(=N)N.Cl [Example 33]", "unit.info": "L/mol × 10^6", "Kass Plasmin": 0.056}
{"molecule": "CCNC(=O)N[C@H](Cc1ccccc1)C(=O)N1CCC[C@H]1C(=O)N[C@H](C=O)CCCNC(=N)N.Cl [Example 76]", "unit.info": "L/mol × 10^6", "Kass Plasmin": 2.0}

Read the next record carefully.
Lookup: What Kass Plasmin value was documented for this molecule, COc1ccc(OC)c(S(=O)(=O)N[C@H](Cc2ccccc2)C(=O)N2CCC[C@H]2C(=O)N[C@H](C=O)CCCNC(=N)N)c1.Cl [Example 59] ?
Found: 9.5

* * *

Target: human thrombin (Homo sapiens)
Assay: Thrombin amidase inhibition (Kass), chromogenic substrate
Type: biochemical
Task for the reader: assign each of the following molecules its reported Kass Human Thrombin.
One number for each entry, in L/mol × 10^6.

// worked examples, Kass Human Thrombin included
{"molecule": "CCS(=O)(=O)N[C@@H](Cc1ccccc1)C(=O)N1CCC[C@@]1(C)C(=O)N[C@H](C=O)CCCNC(=N)N.Cl", "Kass Human Thrombin / L/mol × 10^6": 0.6}
{"molecule": "Cl.Cl.N=C(N)NCCC[C@@H](C=O)NC(=O)[C@@H]1CCCN1C(=O)C1CNCCN1 (some centres unmarked)", "Kass Human Thrombin / L/mol × 10^6": 121}
{"molecule": "Cl.N=C(N)NCCC[C@@H](C=O)NC(=O)[C@@H]1CCCN1C(=O)[C@@H](Cc1ccccc1)NC(=O)c1cc2ccccc2cn1", "Kass Human Thrombin / L/mol × 10^6": 110}
{"molecule": "Cl.N=C(N)NCCC[C@@H](C=O)NC(=O)[C@@H]1CCCN1C(=O)[C@@H](Cc1ccccc1)NC(=O)C1CCCCC1", "Kass Human Thrombin / L/mol × 10^6": 20}
{"molecule": "COCC(=O)N[C@H](Cc1ccccc1)C(=O)N1CCC[C@H]1C(=O)N[C@H](C=O)CCCNC(=N)N.Cl", "Kass Human Thrombin / L/mol × 10^6": 33}

I would be grateful if you could provide Kass Human Thrombin for each of the following entries.
1. Cl.Cn1c(C(=O)NC2(C(=O)N3CCC[C@H]3C(=O)N[C@H](C=O)CCCNC(=N)N)CCCCC2)cc2ccccc21
2. CCS(=O)(=O)N[C@H](Cc1ccccc1)C(=O)N1CCC[C@@]1(C)C(=O)N[C@H](C=O)CCCNC(=N)N.Cl
3. CCCCC(Cc1ccccc1)(NC(=O)OCC)C(=O)N1CCC[C@H]1C(=O)N[C@H](C=O)CCCNC(=N)N (some centres unmarked)
4. Cl.Cl.Cl.N=C(N)NCCC[C@@H](C=O)NC(=O)[C@@H]1CCCN1C(=O)[C@H]1C[C@@H](Oc2ccccc2)CN1.O (relative stereo)

Found:
5.7
24
47
25

For each entry beneath this line, provide reported Kass Human Thrombin.
1. CCCC[C@](Cc1ccccc1)(NC(=O)OCC)C(=O)N1CCC[C@H]1C(=O)N[C@H](C=O)CCCNC(=N)N.Cl
2. Cc1noc(C)c1S(=O)(=O)N[C@H](Cc1ccccc1)C(=O)N1CCC[C@H]1C(=O)N[C@H](C=O)CCCNC(=N)N.Cl

Found:
1. 66
2. 260
